Notes on IC50 obtained with Hsp82 (Saccharomyces cerevisiae, UniProt P02829).
Sequence (P02829 whole entry): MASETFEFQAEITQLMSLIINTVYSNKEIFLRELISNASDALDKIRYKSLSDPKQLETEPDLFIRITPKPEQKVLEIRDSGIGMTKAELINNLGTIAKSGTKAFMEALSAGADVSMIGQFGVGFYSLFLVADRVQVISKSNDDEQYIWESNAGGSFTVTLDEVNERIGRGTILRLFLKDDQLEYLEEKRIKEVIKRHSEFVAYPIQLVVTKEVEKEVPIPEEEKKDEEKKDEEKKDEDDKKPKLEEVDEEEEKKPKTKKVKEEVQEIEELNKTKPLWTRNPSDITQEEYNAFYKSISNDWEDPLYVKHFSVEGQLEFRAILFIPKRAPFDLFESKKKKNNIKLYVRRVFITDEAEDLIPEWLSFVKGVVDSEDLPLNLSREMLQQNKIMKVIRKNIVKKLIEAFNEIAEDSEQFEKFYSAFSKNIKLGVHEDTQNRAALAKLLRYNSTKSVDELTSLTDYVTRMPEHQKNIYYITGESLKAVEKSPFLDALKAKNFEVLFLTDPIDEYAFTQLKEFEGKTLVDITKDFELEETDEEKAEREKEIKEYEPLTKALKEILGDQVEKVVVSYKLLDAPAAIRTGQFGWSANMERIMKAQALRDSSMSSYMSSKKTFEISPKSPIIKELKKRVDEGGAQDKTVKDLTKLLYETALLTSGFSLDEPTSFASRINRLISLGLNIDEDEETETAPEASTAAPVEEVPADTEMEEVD

>>> df
                                   compound  experimental_result
0  O=C(NC1c2cccc(-c3nc4ccncc4[nH]3)c2-n2cccc21)c1cc(Cl)nc2[nH]ccc12 (stereo not drawn)     1000 to 10000 nM
1  O=C(NC1c2cccc(-c3cnc4ccccc4c3)c2-n2cccc21)c1ccnc2[nH]ccc12 (stereo not drawn)     1000 to 10000 nM

What value of IC50 has been reported for the following compound? O=C(NC1c2cccc(-c3nc4ccc(F)cc4[nH]3)c2-n2cccc21)c1ccnc2[nH]ccc12 (stereo not drawn)
< 1000 nM
